System: NCI-H513 (Other Solid Carcinomas);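 note: after 72 h of two-drug dosing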
ASSAY OVERVIEW: Bliss excess, mean over the matrix (fraction); higher = more synergy
Short version: Bliss excess at least -0.02 is condition met, less is condition not met.

# example entries with known answers
CC(=O)Nc1cccc(-n2c(=O)n(C3CC3)c(=O)c3c(Nc4ccc(I)cc4F)n(C)c(=O)c(C)c32)c1 [Trametinib] + Cc1nc(-c2cn3c(n2)-c2ccc(-c4cnn(C(C)(C)C(N)=O)c4)cc2OCC3)n(C(C)C)n1 [Taselisib] (first compound max 1 µM, 7x7, partner max 10 µM)    condition met
COc1nnc2ccc(N3CCC(c4ccc(OCCN5CCN(C)C(=O)[C@H]5C)cc4)CC3)nn12 [AZD5153] + CCN(CCO)CCCOc1ccc2c(Nc3cc(CC(=O)Nc4cccc(F)c4)[nH]n3)ncnc2c1 [AZD2811] (first compound max 1 µM, 7x7, partner max 1 µM)    condition not met
Cc1cc2ncnn2cc1Nc1ncc2c(n1)n(C1CCOCC1)c(=O)n2C [AZD7648] + C=CCn1c(=O)c2cnc(Nc3ccc(N4CCN(C)CC4)cc3)nc2n1-c1cccc(C(C)(C)O)n1 [AZD1775] (first compound max 10 µM, partner max 1 µM)    condition met
Cn1cnc2c(F)c(Nc3ccc(Br)cc3Cl)c(C(=O)NOCCO)cc21 [Selumetinib] + C=CCn1c(=O)c2cnc(Nc3ccc(N4CCN(C)CC4)cc3)nc2n1-c1cccc(C(C)(C)O)n1 [AZD1775] (first compound max 10 µM, partner max 1 µM)    condition not met
CC1(C)CCC(CN2CCN(c3ccc(C(=O)NS(=O)(=O)c4ccc(NCC5CCOCC5)c([N+](=O)[O-])c4)c(Oc4cnc5[nH]ccc5c4)c3)CC2)=C(c2ccc(Cl)cc2)C1 [Venetoclax] + Cc1cc2ncnn2cc1Nc1ncc2c(n1)n(C1CCOCC1)c(=O)n2C [AZD7648] (first compound max 1 µM, 7x7, partner max 10 µM)    condition not met
CN(CCO)CC[C@H](CSc1ccccc1)Nc1ccc(S(=O)(=O)NC(=O)c2ccc(N3CCC([C@@H](O)c4ccccc4-c4ccc(Cl)cc4)CC3)cc2)cc1S(=O)(=O)C(F)(F)F [AZD4320] + C=CCn1c(=O)c2cnc(Nc3ccc(N4CCN(C)CC4)cc3)nc2n1-c1cccc(C(C)(C)O)n1 [AZD1775] (first compound max 1 µM, partner max 1 µM)    condition met

Could you verify whether the entry CC(=O)c1c(C)c2cnc(Nc3ccc(N4CCNCC4)cn3)nc2n(C2CCCC2)c1=O [Palbociclib] + Cn1cnc2c(F)c(Nc3ccc(Br)cc3Cl)c(C(=O)NOCCO)cc21 [Selumetinib] (first compound max 10 µM, 7x7, partner max 10 µM) shows Bliss excess of no less than -0.02?
condition not met

###

Test system: OCUM-1 (Gastric Carcinoma)
ASSAY OVERVIEW: combination Emax (second highest fraction inhibited in the dose matrix, 72 h); higher = more inhibition; extreme values may be limits of the assay
Listing: combination Emax of selected molecules
Form: value (number only, do not type unit).

# example entries with known answers
CN(CCO)CC[C@H](CSc1ccccc1)Nc1ccc(S(=O)(=O)NC(=O)c2ccc(N3CCC([C@@H](O)c4ccccc4-c4ccc(Cl)cc4)CC3)cc2)cc1S(=O)(=O)C(F)(F)F [AZD4320] + Nc1ccn([C@@H]2O[C@H](CO)[C@@H](O)C2(F)F)c(=O)n1 [Gemcitabine] (first compound max 1 µM, 7x7, partner max 0.3 µM)    0.905
O=C(c1cc(Cc2n[nH]c(=O)c3ccccc23)ccc1F)N1CCN(C(=O)C2CC2)CC1 [Olaparib] + COc1nnc2ccc(N3CCC(c4ccc(OCCN5CCN(C)C(=O)[C@H]5C)cc4)CC3)nn12 [AZD5153] (first compound max 10 µM, 7x7, partner max 1 µM)    0.488

Answer with combination Emax of O=C(c1cc(Cc2n[nH]c(=O)c3ccccc23)ccc1F)N1CCN(C(=O)C2CC2)CC1 [Olaparib] + Cc1c2c(nn1C)CSCc1cc(n(C)n1)CSc1cc(c3ccccc3c1)OCCCc1c(C(=O)O)n(C)c3c-2c(Cl)ccc13 [AZD5991] (first compound max 10 µM, 7x7, partner max 1 µM) measured for OCUM-1 (Gastric Carcinoma).
0.0756

Cited source: the supplement of paper PMC11061612
